Protocol description: AUC (0 to t) in male Sprague-Dawley rat at 10 mg/kg, po measured upto 30 hrs by LC-MS/MS analysis
Format: ADME, organism-based
Condition set: in vivo
Assay readout: AUC(0-t) at 30 h (ng·h/mL)
Numbers only, in ng·h/mL.

{"Compound": "NC(=O)/C(=C/n1cnc(-c2cc(C(F)(F)F)cc(C(F)(F)F)c2)n1)c1cncnc1 [ELTANEXOR]", "Unit info": "ng·h/mL", "Meas value": 2540}

Next, consider the following compound.
Query string: What measured AUC(0-t) at 30 h goes with CONC(=O)/C(=C/n1cnc(-c2cc(C(F)(F)F)cc(C(F)(F)F)c2)n1)c1cncnc1 ?
Result string: 3610

---

Protocol description: Metabolic stability in dog liver microsomes assessed as half life measured upto 60 mins in presence of NADPH by LC/MS-MS analysis
Format: ADME, Canis lupus familiaris, Microsome
Assay readout: half-life

{"Compound": "NC(=O)/C(=C/n1cnc(-c2cc(C(F)(F)F)cc(C(F)(F)F)c2)n1)c1cncnc1 [ELTANEXOR]", "Assay readout": "half-life", "Meas value": "> 2 h"}

Next, consider the following compound.
Query string: What measured half-life goes with CONC(=O)/C(=C/n1cnc(-c2cc(C(F)(F)F)cc(C(F)(F)F)c2)n1)c1cncnc1 ?
Result string: > 2 h
